procedure_text: chemical genetic growth profiling, strain panel (AID 1159580);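 note: tested at 20 µM; growth read once vehicle control cultures reached saturation at 30 °C; 1 = growth at the plate median or of vehicle wells; lower values mean less growth of the strain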
recorded_conditions: S. cerevisiae deletion strains, growth OD, locus YPL256C, strain CLN2
The whole screen tested about 5,500 compounds, of which about 2,000 (36%) were called active. About 18% were inconclusive and are not listed. Cut-off read from the data, not from the text of the source: active = normalized growth mostly below about 0.91 (no sharp cut-off); inconclusive = no clear call, values can overlap the other calls; inactive = mostly above about 0.92. The list shows a part of the results.
API: response.call in class 1 for active, class 0 for inactive

Worked set:
molecule	group_label
N#Cc1cccc(CSc2nc3ccc(C(F)(F)F)cc3[nH]2)c1	class 0
CC1=CC(=O)N(c2ccc(OC(F)(F)F)cc2)C1=O	class 1
NC(N)=NCCCCN=C(N)N	class 0
NC(N)=NCCN1CCCCCCC1	class 0

Answer briefly: the call reported for OC[C@H]1O[C@@H](n2cnc3c(NCc4ccco4)ncnc32)[C@H](O)[C@@H]1O in this assay. class 0

Answer briefly: the call reported for C=NC(C(=O)NC1C(=O)N2C1SC(C)(C)C2C(=O)O)c1ccccc1 (stereo not given) in this assay. class 0

Answer briefly: the call reported for CC[C@@H]1OC(=O)C[C@@H](O)[C@H](C)[C@@H](O[C@@H]2O[C@H](C)[C@@H](O)[C@H](N(C)C)[C@H]2O)[C@@H](CCN2C[C@H](C)C[C@H](C)C2)C[C@@H](C)C(=O)/C=C/C(C)=C\[C@@H]1CO[C@@H]1O[C@H](C)[C@@H](O)[C@@H](OC)[C@H]1OC in this assay. class 0

Answer briefly: the call reported for NCCCC(=O)O in this assay. class 0

Answer briefly: the call reported for CN/C(=C\[N+](=O)[O-])NCCSCc1csc(CN(C)C)n1 in this assay. class 0

Answer briefly: the call reported for CC1=CC(=O)N(c2ccc(F)c(Cl)c2)C1=O in this assay. class 1

###

procedure_text: chemical genetic growth profiling, strain panel (AID 1159580);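 note: tested at 20 µM; growth read once vehicle control cultures reached saturation at 30 °C; 1 = growth at the plate median or of vehicle wells; lower values mean less growth of the strain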
recorded_conditions: S. cerevisiae deletion strains, growth OD, locus YNL209W, strain ssb2, hits give low values
Screen size: about 5,500 compounds; about 2,000 (36%) were called active. Inconclusive results (about 18%) are left out. This is one part of the list.
test_readout: normalized growth

State, in one line, measured normalized growth of O=C(O)CCC1NCC2CC1CN1CCCCC21 (stereo not given) 0.984 (inactive)

###

procedure_text: chemical genetic growth profiling, strain panel (AID 1159580);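 note: tested at 20 µM; growth read once vehicle control cultures reached saturation at 30 °C; 1 = growth at the plate median or of vehicle wells; lower values mean less growth of the strain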
recorded_conditions: S. cerevisiae deletion strains, growth OD, locus YDR363W, strain ESC2, hits give low values
The whole screen tested about 5,500 compounds, of which about 2,000 (36%) were called active. Not shown: some 18% with an inconclusive outcome. Some of the results follow.
Reported normalized growth values for the following compounds.
Give a plain numeric answer without units written out.

compound	normalized growth
NC(N)=NCCSSCCN=C(N)N	0.941
NCCCCCC(=O)O	1.01
CCCN1CCC[C@@H]2Cc3[nH]ncc3C[C@H]21	1.01
CCCNC(=O)NS(=O)(=O)c1ccc(Cl)cc1	0.97
NC(=NCc1ccc(Cl)c(Cl)c1)NC(=O)c1nc(Cl)c(N)nc1N	0.992

State, in one line, measured normalized growth of CNc1ncnc2c1ncn2[C@@H]1O[C@H](CO)[C@H](O)C1O (stereo not given in full) 0.996

State, in one line, measured normalized growth of O=c1[nH]c2cc(C(F)(F)F)ccc2n1-c1cc(C(F)(F)F)ccc1O 1.01

State, in one line, measured normalized growth of CCCCCCCCCCC/C=C\C(C)(C)/C=C\CCCC(=O)O 1.04

State, in one line, measured normalized growth of Cc1ccccc1CNc1ncnc2c1ncn2C1OC(CO)C(O)C1O (stereo not given) 1.03

State, in one line, measured normalized growth of Cc1ccccc1N1CCN(S(=O)(=O)C[C@]23CCC(CC2NC(=O)[C@@H](N)CCS(C)(=O)=O)C3(C)C)CC1 (stereo not given in full) 1

State, in one line, measured normalized growth of COc1cc(NS(C)(=O)=O)ccc1Nc1c2ccccc2nc2ccccc12 0.916

State, in one line, measured normalized growth of COc1cc2c(CCNC(C)=O)c[nH]c2cc1O 1.02

State, in one line, measured normalized growth of CNc1ccc2oc(C[C@H]3O[C@@]4(CC[C@H]3C)O[C@H]([C@H](C)C(=O)c3ccc[nH]3)[C@H](C)C[C@H]4C)nc2c1C(=O)O 0.928

State, in one line, measured normalized growth of C[C@]12CC[C@@H]3c4ccc(O)cc4CC[C@H]3[C@@H]1CCC2=O 1

State, in one line, measured normalized growth of CC(N)c1cccc(Cl)c1Cl (stereo not given) 1.08

State, in one line, measured normalized growth of CC(O)C(C)OC(=O)[C@@H]1C[C@@H]2c3cccc4c3c(cn4C(C)C)C[C@H]2N(C)C1 (stereo not given in full) 0.996

State, in one line, measured normalized growth of Cc1oncc1C(=O)Nc1ccc(C(F)(F)F)cc1 0.966

State, in one line, measured normalized growth of Clc1ccc(C(c2ccccc2Cl)C(Cl)Cl)cc1 (stereo not given) 1.01

State, in one line, measured normalized growth of S=C(S)OC1CC2CC1C1CCCC21 (stereo not given) 1.02

State, in one line, measured normalized growth of COc1ccc2c(c1)c(CC(=O)O)c(C)n2Cc1ccc(Cl)cc1 0.972
